- Study Target: Xanthine oxidase (XO) (Bos taurus, UniProt P80457)
- Sequence (P80457 whole entry): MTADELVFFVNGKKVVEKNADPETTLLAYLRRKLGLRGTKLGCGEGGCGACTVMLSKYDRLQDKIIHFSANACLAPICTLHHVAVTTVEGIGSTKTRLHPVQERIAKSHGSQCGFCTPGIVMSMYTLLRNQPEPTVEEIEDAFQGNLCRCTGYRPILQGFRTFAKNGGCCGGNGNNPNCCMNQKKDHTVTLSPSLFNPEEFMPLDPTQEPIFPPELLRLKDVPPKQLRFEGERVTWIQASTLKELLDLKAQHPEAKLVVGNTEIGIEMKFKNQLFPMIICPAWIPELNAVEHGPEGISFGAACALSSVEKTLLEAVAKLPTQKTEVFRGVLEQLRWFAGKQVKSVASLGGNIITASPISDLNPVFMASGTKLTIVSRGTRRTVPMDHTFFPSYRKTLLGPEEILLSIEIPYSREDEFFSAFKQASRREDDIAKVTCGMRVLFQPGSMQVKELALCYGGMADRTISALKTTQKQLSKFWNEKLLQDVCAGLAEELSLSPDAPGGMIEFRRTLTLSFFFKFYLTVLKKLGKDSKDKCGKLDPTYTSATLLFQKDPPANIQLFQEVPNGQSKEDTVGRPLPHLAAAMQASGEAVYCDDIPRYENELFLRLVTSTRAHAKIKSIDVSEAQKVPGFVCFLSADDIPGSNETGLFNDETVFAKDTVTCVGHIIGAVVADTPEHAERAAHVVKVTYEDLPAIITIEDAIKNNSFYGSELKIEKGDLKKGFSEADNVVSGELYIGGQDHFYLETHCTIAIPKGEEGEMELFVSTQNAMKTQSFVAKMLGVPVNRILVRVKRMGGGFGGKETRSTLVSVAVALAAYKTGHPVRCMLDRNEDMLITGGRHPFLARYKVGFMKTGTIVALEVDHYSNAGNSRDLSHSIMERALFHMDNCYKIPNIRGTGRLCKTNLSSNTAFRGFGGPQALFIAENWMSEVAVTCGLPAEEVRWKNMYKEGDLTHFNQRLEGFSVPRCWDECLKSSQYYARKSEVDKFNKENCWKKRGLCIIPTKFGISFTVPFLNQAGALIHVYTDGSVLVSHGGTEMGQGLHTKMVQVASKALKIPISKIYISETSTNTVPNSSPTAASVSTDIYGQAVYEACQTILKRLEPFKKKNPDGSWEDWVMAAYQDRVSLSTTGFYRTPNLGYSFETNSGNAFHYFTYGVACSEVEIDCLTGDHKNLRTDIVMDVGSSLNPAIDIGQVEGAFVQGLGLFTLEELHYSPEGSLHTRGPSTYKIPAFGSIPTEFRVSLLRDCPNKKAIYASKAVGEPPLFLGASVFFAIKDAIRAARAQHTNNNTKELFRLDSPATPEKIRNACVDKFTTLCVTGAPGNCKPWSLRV
- Method Notes: Determination of xanthine oxidase activity (UV, 290 nm)
- Assay type: biochemical, cow
- Condition Label: T = 298 K, pH 7.4, [xanthine] = 0.1 mmol/L, [XO] = 0.04 U/mL; read-out: IC50 (XO inhibition)
Parameter: pIC50
Numbers only, as −log10 of the molar value.

## Input For the compound O=c1oc2c(O)c(O)cc3c(=O)oc4c(O)c(O)cc1c4c23 [EA, Ellagic acid] , report pIC50.
## Output 4.64

###

- Study Target: Xanthine oxidase (XO) (Bos taurus)
- Method Notes: Kinetic analysis of XO inhibition (Lineweaver-Burk)
- Format: biochemical, cow
- Condition Label: [XO] = 0.04 U/mL, xanthine 6.25 to 50 μmol/L; read-out: Ki (inhibition constant, binding with free XO)
Parameter: Ki (µM)
Answers are plain numbers, in µM.

## Input Fill in: Ki on Xanthine oxidase (XO) (Bos taurus), entry O=c1oc2c(O)c(O)cc3c(=O)oc4c(O)c(O)cc1c4c23
## Output 10.6
